- Test Details: Half life in iv dosed rat plasma
- Format: ADME, organism-based

Item Smiles: N=C(N)c1ccc2[nH]c(-c3cc(Cl)cc(Cl)c3)cc2c1
half-life / h: 2

###

This listing pairs molecules with measured inhibition.
- Target System: UniProt:Q9UHC3
- Sequence (whole entry): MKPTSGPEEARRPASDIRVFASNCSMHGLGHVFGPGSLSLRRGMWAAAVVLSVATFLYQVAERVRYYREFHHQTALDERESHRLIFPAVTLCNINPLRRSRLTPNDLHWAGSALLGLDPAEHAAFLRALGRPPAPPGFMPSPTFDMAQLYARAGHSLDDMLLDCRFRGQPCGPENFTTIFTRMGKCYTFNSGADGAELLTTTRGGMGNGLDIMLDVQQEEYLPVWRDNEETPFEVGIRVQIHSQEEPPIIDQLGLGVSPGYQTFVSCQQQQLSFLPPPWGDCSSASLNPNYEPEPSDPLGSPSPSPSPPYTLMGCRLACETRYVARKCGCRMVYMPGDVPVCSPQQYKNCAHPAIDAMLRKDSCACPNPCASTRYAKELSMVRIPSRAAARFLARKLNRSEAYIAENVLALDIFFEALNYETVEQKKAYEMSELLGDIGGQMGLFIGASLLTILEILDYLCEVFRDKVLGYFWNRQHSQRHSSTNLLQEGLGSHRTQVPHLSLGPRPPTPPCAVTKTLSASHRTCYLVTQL
- Test Details: Inhibition of ASIC3 at 10 uM by patch-clamp electrophysiology assay relative to baseline peak current
Value Kind: inhibition (%)

Item Smiles: N=C(N)c1ccc2[nH]c(-c3cc(F)cc(Cl)c3)cc2c1
Units: %
Observed Measurement: 99
--
Item Smiles: N=C(N)c1ccc(-c2cc3ccc(C(=N)N)cc3[nH]2)cc1
Units: %
Observed Measurement: 83
--
Item Smiles: N=C(N)c1ccc(-c2cc3ccccc3[nH]2)cc1
Units: %
Observed Measurement: 46
